Cited source: ChEMBL document CHEMBL3425455

# tested target: Glucagon-like peptide 1 receptor (Homo sapiens, UniProt P43220)
# Sequence (P43220 whole entry): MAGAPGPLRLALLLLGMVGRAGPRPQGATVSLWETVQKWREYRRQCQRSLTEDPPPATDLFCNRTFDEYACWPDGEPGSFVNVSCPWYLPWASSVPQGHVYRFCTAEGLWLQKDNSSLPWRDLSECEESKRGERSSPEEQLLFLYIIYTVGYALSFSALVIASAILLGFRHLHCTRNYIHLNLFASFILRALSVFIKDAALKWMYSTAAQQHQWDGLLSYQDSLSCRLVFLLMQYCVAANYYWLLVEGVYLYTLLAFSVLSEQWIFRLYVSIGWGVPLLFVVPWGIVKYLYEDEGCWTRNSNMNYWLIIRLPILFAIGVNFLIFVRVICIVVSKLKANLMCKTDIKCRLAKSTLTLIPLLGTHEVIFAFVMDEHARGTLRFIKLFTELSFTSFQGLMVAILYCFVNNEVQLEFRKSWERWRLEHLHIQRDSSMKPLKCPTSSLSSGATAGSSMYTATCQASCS
# procedure summary: Agonist activity at human GLP-1R expressed in CHO cells assessed as cAMP accumulation incubated for 30 mins
Positions of bridges follow the written chain, without caps; N, C: chain ends. Non-standard residues stand in square brackets, D forms with d. Residues, ends and D or L forms follow the SMILES beside them. Bip(2'-Et-4'-OMe) = CCc1cc(OC)ccc1-c1ccc(C[C@H](N)C(=O)O)cc1; Bip(2'-Me) = Cc1ccccc1-c1ccc(C[C@H](N)C(=O)O)cc1; αMePhe(2,6-F2) = C[C@](N)(Cc1c(F)cccc1F)C(=O)O; Tyr(3-I) = N[C@@H](Cc1ccc(O)c(I)c1)C(=O)O; αMePhe(2-F) = C[C@](N)(Cc1ccccc1F)C(=O)O; hhPhe = N[C@@H](CCCc1ccccc1)C(=O)O; Aib = CC(C)(N)C(=O)O
readout label: log10 EC50 (log10 of the value in nM)
Each number you see is log10 of EC50, and the unit inside the log is nM.

Can you look up log10 EC50 on Glucagon-like peptide 1 receptor (Homo sapiens, UniProt P43220) for "CCc1cc(OC)ccc1-c1ccc(C[C@H](NC(=O)[C@H](CC(=O)O)NC(=O)[C@H](CO)NC(=O)[C@@H](NC(=O)[C@](C)(Cc2ccccc2F)NC(=O)[C@@H]2CSSC[C@@H](NC(=O)[C@@H](N)Cc3cnc[nH]3)C(=O)N[C@@H](CCC(=O)O)C(=O)NCC(=O)N2)[C@@H](C)O)C(=O)N[C@@H](CCCc2ccccc2)C(N)=O)cc1" ?
2.78

Param readout = log10 EC50; param system = Glucagon-like peptide 1 receptor (Homo sapiens, UniProt P43220); param query = CCc1cc(OC)ccc1-c1ccc(C[C@H](NC(=O)[C@H](CC(=O)O)NC(=O)[C@H](CO)NC(=O)[C@@H](NC(=O)[C@](C)(Cc2ccccc2F)NC(=O)[C@@H](NC(=O)CNC(=O)[C@H](CCC(=O)O)NC(=O)C(C)(C)NC(=O)[C@@H](N)Cc2cnc[nH]2)[C@@H](C)O)[C@@H](C)O)C(=O)N[C@@H](Cc2ccc(O)c(I)c2)C(N)=O)cc1 (H-H[Aib]EGT[αMePhe(2-F)]TSD[Bip(2'-Et-4'-OMe)][Tyr(3-I)]-NH2) ; response: value
-1.35

Notebook: pull reported log10 EC50 for Glucagon-like peptide 1 receptor (Homo sapiens, UniProt P43220), entry "CCc1cc(OC)ccc1-c1ccc(C[C@H](NC(=O)[C@H](CC(=O)O)NC(=O)[C@H](CO)NC(=O)[C@@H](NC(=O)[C@](C)(Cc2ccccc2F)NC(=O)[C@H]2CCSSC[C@@H](NC(=O)[C@@H](N)Cc3cnc[nH]3)C(=O)N[C@@H](CCC(=O)O)C(=O)NCC(=O)N2)[C@@H](C)O)C(=O)N[C@@H](CCCc2ccccc2)C(N)=O)cc1"
1.91

What reported log10 EC50 corresponds to CCc1cc(OC)ccc1-c1ccc(C[C@H](NC(=O)[C@@H]2CCC(=O)NCCCC[C@H](NC(=O)CNC(=O)[C@H](CCC(=O)O)NC(=O)C(C)(C)NC(=O)[C@@H](N)Cc3cnc[nH]3)C(=O)N[C@@](C)(Cc3ccccc3F)C(=O)N[C@@H]([C@@H](C)O)C(=O)N[C@@H](CO)C(=O)N2)C(=O)N[C@@H](CCCc2ccccc2)C(N)=O)cc1 (H-H[Aib]EGK[αMePhe(2-F)]TSE[Bip(2'-Et-4'-OMe)][hhPhe]-NH2; lactam 5-9) on Glucagon-like peptide 1 receptor (Homo sapiens, UniProt P43220)?
1.00

Enter reported log10 EC50 observed with Glucagon-like peptide 1 receptor (Homo sapiens, UniProt P43220) for "CCc1cc(OC)ccc1-c1ccc(C[C@H](NC(=O)[C@H](CC(=O)O)NC(=O)[C@H](CO)NC(=O)[C@@H](NC(=O)[C@](C)(Cc2ccccc2F)NC(=O)[C@H]2CSSCC[C@@H](NC(=O)[C@@H](N)Cc3cnc[nH]3)C(=O)N[C@@H](CCC(=O)O)C(=O)NCC(=O)N2)[C@@H](C)O)C(=O)N[C@@H](CCCc2ccccc2)C(N)=O)cc1"
2.04

Give the reported log10 EC50 for CCc1cc(OC)ccc1-c1ccc(C[C@H](NC(=O)[C@H](CC(=O)O)NC(=O)[C@H](CO)NC(=O)[C@@H](NC(=O)[C@](C)(Cc2c(F)cccc2F)NC(=O)[C@@H](NC(=O)CNC(=O)[C@H](CCC(=O)O)NC(=O)C(C)(C)NC(=O)[C@@H](N)Cc2cnc[nH]2)[C@@H](C)O)[C@@H](C)O)C(=O)N[C@@H](Cc2ccc(-c3ccccc3C)cc2)C(N)=O)cc1 (H-H[Aib]EGT[αMePhe(2,6-F2)]TSD[Bip(2'-Et-4'-OMe)][Bip(2'-Me)]-NH2) (system: Glucagon-like peptide 1 receptor (Homo sapiens, UniProt P43220)).
-0.72

API: value(readout=log10 EC50, system=Glucagon-like peptide 1 receptor (Homo sapiens, UniProt P43220)) for record CCc1cc(OC)ccc1-c1ccc(C[C@H](NC(=O)[C@@H]2CCCCNC(=O)C[C@H](NC(=O)CNC(=O)[C@H](CCC(=O)O)NC(=O)C(C)(C)NC(=O)[C@@H](N)Cc3cnc[nH]3)C(=O)N[C@@](C)(Cc3ccccc3F)C(=O)N[C@@H]([C@@H](C)O)C(=O)N[C@@H](CO)C(=O)N2)C(=O)N[C@@H](CCCc2ccccc2)C(N)=O)cc1 (H-H[Aib]EGD[αMePhe(2-F)]TSK[Bip(2'-Et-4'-OMe)][hhPhe]-NH2; lactam 5-9)
2.51

Request: log10 EC50, test system Glucagon-like peptide 1 receptor (Homo sapiens, UniProt P43220), entry CCc1cc(OC)ccc1-c1ccc(C[C@H](NC(=O)[C@@H]2CCCCNC(=O)CC[C@H](NC(=O)CNC(=O)[C@H](CCC(=O)O)NC(=O)C(C)(C)NC(=O)[C@@H](N)Cc3cnc[nH]3)C(=O)N[C@@](C)(Cc3ccccc3F)C(=O)N[C@@H]([C@@H](C)O)C(=O)N[C@@H](CO)C(=O)N2)C(=O)N[C@@H](CCCc2ccccc2)C(N)=O)cc1 (H-H[Aib]EGE[αMePhe(2-F)]TSK[Bip(2'-Et-4'-OMe)][hhPhe]-NH2; lactam 5-9)
2.63

Query the reported log10 EC50 for Glucagon-like peptide 1 receptor (Homo sapiens, UniProt P43220); item: CCc1cc(OC)ccc1-c1ccc(C[C@H](NC(=O)[C@@H]2CC(=O)NCCCC[C@H](NC(=O)CNC(=O)[C@H](CCC(=O)O)NC(=O)C(C)(C)NC(=O)[C@@H](N)Cc3cnc[nH]3)C(=O)N[C@@](C)(Cc3ccccc3F)C(=O)N[C@@H]([C@@H](C)O)C(=O)N[C@@H](CO)C(=O)N2)C(=O)N[C@@H](CCCc2ccccc2)C(N)=O)cc1 (H-H[Aib]EGK[αMePhe(2-F)]TSD[Bip(2'-Et-4'-OMe)][hhPhe]-NH2; lactam 5-9)
1.83

Identify the measured log10 EC50 of "CCc1cc(OC)ccc1-c1ccc(C[C@H](NC(=O)[C@H](CC(=O)O)NC(=O)[C@H](CO)NC(=O)[C@@H](NC(=O)[C@](C)(Cc2ccccc2F)NC(=O)[C@H]2CCSSC[C@H](NC(=O)[C@@H](N)Cc3cnc[nH]3)C(=O)N[C@@H](CCC(=O)O)C(=O)NCC(=O)N2)[C@@H](C)O)C(=O)N[C@@H](CCCc2ccccc2)C(N)=O)cc1" for Glucagon-like peptide 1 receptor (Homo sapiens, UniProt P43220).
2.28
